Target: T1, human CD73 on cells (human, UniProt P21589 27-549)
T1 sequence: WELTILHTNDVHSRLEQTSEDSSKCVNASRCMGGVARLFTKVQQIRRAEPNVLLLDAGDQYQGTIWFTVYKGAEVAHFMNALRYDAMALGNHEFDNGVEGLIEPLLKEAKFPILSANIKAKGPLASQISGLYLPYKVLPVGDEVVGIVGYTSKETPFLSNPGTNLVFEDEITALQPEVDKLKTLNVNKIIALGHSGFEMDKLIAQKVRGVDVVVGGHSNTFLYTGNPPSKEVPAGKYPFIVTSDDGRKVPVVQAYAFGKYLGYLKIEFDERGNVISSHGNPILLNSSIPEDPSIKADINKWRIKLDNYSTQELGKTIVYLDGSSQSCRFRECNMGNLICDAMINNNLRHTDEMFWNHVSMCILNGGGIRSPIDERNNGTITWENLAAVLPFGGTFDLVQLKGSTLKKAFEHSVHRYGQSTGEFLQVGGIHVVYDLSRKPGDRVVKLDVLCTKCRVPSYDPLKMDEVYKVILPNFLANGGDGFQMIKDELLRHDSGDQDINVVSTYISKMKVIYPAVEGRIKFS
Assay: cell-based or functional assay
experimental endpoint: Ymax, cAMP HTRF assay (percent of 100 nM 11F11 control)
A bare number is not enough; add the unit after it.

Query: # return recorded Ymax, cAMP HTRF assay (percent of 100 nM 11F11 control) for entry 5F8 (antibody, human IgG1, kappa, V domains shown, IgG1za; VK2 also expressed; also called 5F8-1) VH: EVQLVESGGGLVQPGGSLRLSCAASGFTFSSYWMHWVRQAPGKGLVWVSRIISDGSSTGYADSVKGRFTISRDNAKNTLYLQMNSLRAEDTAVYYCAREFSSGWYFDYWGQGTLVTVSS VL: AIQLTQSPSSLSASVGDRVTITCRASQGISSALAWYQQKPGKAPKLLIYDASSLESGVPSRFSGSGSGTDFTLTISSLQPEDFATYYCQQFSSYPRTFGQGTKVEIKR
Reply: 80%

Query: Give Ymax, cAMP HTRF assay (percent of 100 nM 11F11 control) for 11F11 (antibody, human IgG2, kappa, V domains shown, Human IgG2; also called 11F11-2) VH: QVQLVESGGGVVQPGRSLRLSCATSGFTFSNYGMHWVRQAPGKGLEWVAVILYDGSNKYYPDSVKGRFTISRDNSKNTLYLQMNSLRAEDTAVYYCARGGSSWYPDSFDIWGQGTMVTVSS VL: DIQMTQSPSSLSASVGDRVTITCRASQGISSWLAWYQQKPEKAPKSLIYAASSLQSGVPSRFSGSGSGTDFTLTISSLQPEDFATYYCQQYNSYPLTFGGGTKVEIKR
Reply: 76%

Query: Name the recorded Ymax, cAMP HTRF assay (percent of 100 nM 11F11 control) of the binder listed here: 11A6 (antibody, human IgG1, kappa, V domains shown, IgG1za; also called 11A6-1) VH: EVQLVESGGNLVQPGRSLRLSCAASGFTFDDYAMHWVRQAPGKGLEWVSGISWNNNDIGYADSVKGRFIISRDNAKNSLYLQMNSLRPEDTALYYCVKGYYVILTGLDYWGQGTPVTVSS VL: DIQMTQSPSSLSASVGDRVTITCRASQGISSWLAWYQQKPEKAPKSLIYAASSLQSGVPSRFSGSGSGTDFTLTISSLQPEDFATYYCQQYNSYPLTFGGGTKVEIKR
Reply: 84%

Query: Please report the measured Ymax, cAMP HTRF assay (percent of 100 nM 11F11 control) for 7A11 (antibody, human IgG1, kappa, V domains shown, IgG1za; also called 7A11-1) VH: EVQLVESGGGLVQTGRSLRLSCAASGFTFDDYAMHWVRQAPGKGLEWVSDISWNSDIIGYADSVKGRFTISRDNAKNSLYLQMNSLRAEDTALYYCAKDIYGSGSSFFDYWGQGILVTVSS VL: DIQMTQSPSSLSASVGDRVTITCRASQYISSWLAWYQQKPEKAPKSLIYAASSLQSGVPSRFSGSGSGTDFTLTISSLQPEDFATYYCQQYHSYPPTFGQGTRLEIKR
Reply: 45%
